Each entry below lists one item and its recorded IC50 value.
Target: T1, IL-4R with mouse Fc-tag (human, UniProt P24394 26-232)
T1 construct: not shown: mouse Fc-tag
Test: competitive ELISA: antibody dilutions with 0.5 µg/mL IL-4R-mouse Fc on plate-captured biotinylated IL-4, anti-mouse-Fc-HRP
assay_metric: IC50 (µg/mL)

- C27-7-33 (antibody, human IgG4, V domains shown) VH: EVQLLESGGGLVQPGGSLRLSCAASGFTLSSYAMHWVRQAPGKGLEYVSGISPSGVSTYYANSVKGRFTISRDNPKNTLFLQMSSLRAEDTAVYYCVRVKVKYRGGMDVWGQGTTVTVSS VL: EIVLTQSPGTLSLSPGERATLSCRASQGISSAYLAWYQQKPGQAPRLLIYGTSRRATGIPDRFSGSGSGTDFTLTISRLEPEDFAVYYCQLYGATSVTFGQGTKLEIK: 0.0582
- Dupilumab (antibody, V domains shown) VH: EVQLVESGGGLEQPGGSLRLSCAGSGFTFRDYAMTWVRQAPGKGLEWVSSISGSGGNTYYADSVKGRFTISRDNSKNTLYLQMNSLRAEDTAVYYCAKDRLSITIRPRYYGLDVWGQGTTVTVSS VL: DIVMTQSPLSLPVTPGEPASISCRSSQSLLYSIGYNYLDWYLQKSGQSPQLLIYLGSNRASGVPDRFSGSGSGTDFTLKISRVEAEDVGFYYCMQALQTPYTFGQGTKLEIKR: 0.0838
- C27-47-56 (antibody, human IgG4, V domains shown) VH: EVQLLESGGGLVQPGGSLRLSCAASGFTLSSYAMHWVRQAPGKGLEYVSGISPTGTSTYYANSVKGRFTISRDNPKNTLFLQMSSLRAEDTAVYYCVRVKGAYRGGMDVWGQGTTVTVSS VL: EIVLTQSPGTLSLSPGERATLSCRASQSVSSAYLAWYQQKPGQAPRLLIYGTSRRATGIPDRFSGSGSGTDFTLTISRLEPEDFAVYYCQLYGASSVTFGQGTKLEIK: 0.0651
- C27-6-33 (antibody, human IgG4, V domains shown) VH: EVQLLESGGGLVQPGGSLRLSCAASGFTLSSYAMHWVRQAPGKGLEYVSGISPSGSSTYYANSVKGRFTISRDNPKNTLFLQMSSLRAEDTAVYYCVRSKVRYRGGMDVWGQGTTVTVSS VL: EIVLTQSPGTLSLSPGERATLSCRASQGISSAYLAWYQQKPGQAPRLLIYGTSRRATGIPDRFSGSGSGTDFTLTISRLEPEDFAVYYCQLYGATSVTFGQGTKLEIK: 0.0781
